Biological target: NAD-dependent protein deacetylase sirtuin-1 (Homo sapiens) (UniProt Q96EB6)
Sequence (Q96EB6 whole entry): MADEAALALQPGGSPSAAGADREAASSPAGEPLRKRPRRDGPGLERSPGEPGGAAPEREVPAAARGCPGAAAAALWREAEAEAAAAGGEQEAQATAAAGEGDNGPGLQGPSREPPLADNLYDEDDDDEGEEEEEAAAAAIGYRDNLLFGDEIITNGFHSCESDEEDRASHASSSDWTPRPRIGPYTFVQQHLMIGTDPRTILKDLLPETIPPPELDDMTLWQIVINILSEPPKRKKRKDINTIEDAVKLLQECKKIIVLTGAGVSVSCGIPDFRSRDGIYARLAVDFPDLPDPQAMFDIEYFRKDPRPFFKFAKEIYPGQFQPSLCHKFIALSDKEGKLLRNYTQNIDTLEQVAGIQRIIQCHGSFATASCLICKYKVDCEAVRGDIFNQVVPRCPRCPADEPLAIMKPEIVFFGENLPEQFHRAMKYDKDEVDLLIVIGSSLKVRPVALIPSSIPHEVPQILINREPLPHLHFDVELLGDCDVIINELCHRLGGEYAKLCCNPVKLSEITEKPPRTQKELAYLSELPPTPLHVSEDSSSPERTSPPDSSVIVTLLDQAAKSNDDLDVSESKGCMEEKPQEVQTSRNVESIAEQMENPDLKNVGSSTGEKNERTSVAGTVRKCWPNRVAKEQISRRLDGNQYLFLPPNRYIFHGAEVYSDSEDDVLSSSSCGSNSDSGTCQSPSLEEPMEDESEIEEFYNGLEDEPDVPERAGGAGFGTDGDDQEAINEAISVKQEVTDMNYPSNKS
Settings: at 50 µM
Description: Inhibition of human recombinant GST-tagged SIRT1 using KI177 as substrate at 50 uM preincubated for 5 mins followed by enzyme addition measured after 1 hr by fluorescence assay relative to control

>  <smiles_notation>
CC(=S)NCCCC[C@H](NC(=O)CCCCCc1ccccc1)C(=O)NCc1ccccc1

>  <system>
NAD-dependent protein deacetylase sirtuin-1 (Homo sapiens) (UniProt Q96EB6)

>  <inhibition (%)>
100

$$$$
>  <smiles_notation>
CC(=S)NCCCC[C@H](NC(=O)OC(C)(C)C)C(=O)NCC(=O)c1ccccc1

>  <system>
NAD-dependent protein deacetylase sirtuin-1 (Homo sapiens) (UniProt Q96EB6)

>  <inhibition (%)>
91

$$$$
>  <smiles_notation>
CC(=S)NCCCC[C@H](NC(=O)OCc1ccccc1)C(=O)NCC(=O)c1ccccc1

>  <system>
NAD-dependent protein deacetylase sirtuin-1 (Homo sapiens) (UniProt Q96EB6)

>  <inhibition (%)>
97

$$$$
>  <smiles_notation>
CC(=S)NCCCC[C@H](NC(=O)CCc1ccccc1F)C(=O)Nc1cccnc1

>  <system>
NAD-dependent protein deacetylase sirtuin-1 (Homo sapiens) (UniProt Q96EB6)

>  <inhibition (%)>
94

$$$$
>  <smiles_notation>
CC(=S)NCCCC[C@H](NC(=O)CCCc1ccccc1)C(=O)NCC(=O)c1ccccc1

>  <system>
NAD-dependent protein deacetylase sirtuin-1 (Homo sapiens) (UniProt Q96EB6);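 also: recombinant GST-tagged human SIRT1 enzyme assay with KI177 substrate, fluorescence read 1 h after enzyme addition, inhibition expressed relative to control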

>  <inhibition (%)>
98

$$$$
